Cited source for all entries: patent US20240084004A1

Tested on: T1, HIS-tagged extracellular domain of canine PD-1
T1 construct: also called canine PD-1 ECD-8HIS; PD-1ECD-HIS
T1 chain: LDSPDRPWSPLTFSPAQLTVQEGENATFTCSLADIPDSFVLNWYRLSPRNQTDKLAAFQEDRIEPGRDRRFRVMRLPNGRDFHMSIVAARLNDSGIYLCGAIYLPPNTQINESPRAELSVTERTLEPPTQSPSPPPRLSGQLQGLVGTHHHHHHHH
Test description: ELISA on plate-coated HIS-tagged canine PD-1 ECD, two-fold dilutions of mAb, HRP goat anti-mouse IgG, TMB
Description: Purified anti-canine PD-1 mAbs were tested for reactivity with the HIS-tagged ECD domain of canine PD-1 by ELISA as follows: HIS-tagged canine PD-1 ECD protein is diluted to 10 μg/mL in coating buffer (Carbonate/Bicarbonate pH 9.0) and dispensed at 100 μl/well in 96-well flat bottomed ELISA plates (NUNC). The plates are incubated at 4° C. overnight. […] The color reaction is allowed to develop for 5-20 minutes at 37° C. prior to measuring absorbance at 650 nm.
Measured property: binding result

Binder	Readout value
Murine 2H9 (mouse anti-canine PD-1 monoclonal antibody) (antibody, V domains shown, Mouse hybridoma mAb purified on Protein G; also called mAb 2H9) VH: EVQLQQSVAELVRPGASVKLSCTASGFNIKNTYMHWIKQRPEQGLEWIGRIAPANVDTKYAPKFQGKATITADTSSNTAYMQLSTLTSEDTAIYYCVLIYYDYDGDIDVWGTGTTVTVSS VL: DIQMNQSPSSLSASLGDTITITCHASQNINVWLSWYQQRPGNIPKLLIYKASHLHTGVPSRFSGSGSGTGFTLTISSLQPEDIATYYCQQGQSWPLTFGAGTKLELK	binds
mAb 2G9 (mouse anti-canine PD-1 monoclonal antibody) (antibody, V domains shown, Mouse hybridoma mAb) VH: QAYLQQSGAELVRPGASVKISCKASGYTFTRYNMHWVKQTPRQGLEWIGTIYPGYGDTSYNQKFKGKATLTVDISSSTAYMQLTSLTSEDSAVYFCSREFADDYPIPPFDYWGQGTTLTVSS VL: DVLMTQTPLSLPVSLGDQASISCRSSQNIVHSNGNTYLEWYLQKPGQSPKLLIYKVSNRFSGVPDRFSGSGSGTDFTLKISRVEAEDLGIYYCFQGSHVPYTFGGGTKLEIK	binds
Murine 3B6 (mouse anti-canine PD-1 monoclonal antibody) (antibody, V domains shown, Mouse hybridoma mAb; also called mAb 3B6) VH: QIQLVQSGPELKKPGETVKISCKASGYTFTTYGMSWVKQAPGKGLKWMGWINIYSGIPTYADDFKGRFAFSLETSASTAYLQIDNLKNEDTATYFCARFDGPDYWGQGTTLTVSS VL: DIVMTQSPSSLAVSVGRKVTMSCKSSQSLLNSVNQKNYLAWYQQKPGQSPKVLVYFASARVSGVPDRFIGSGSGTDFTLAISSVQAEDLTTYFCQQYFSTPLTFGAGTKLELK	binds
